system: Colon cancer organoid; test: Optimized Dual-Glo assay to identify co-culture induced drug vulnerabilities using donated chemical probes and chemogenomics kinase set in O06 CRC organoid and F06 CAF mono and co-culture. […] Cell viability is reported both mono and co-culture models.; format: functional, Homo sapiens; parameters: dose or concentration left out as unconfirmed; details: Culture type Mono-Culture; Transduced with Renilla-dsRed lentivirus
test.readout: Cell Viability (%)

>  <compound>
O=C(N[C@H]1CCCCC/C=C\C2C[C@@]2(C(=O)O)NC(=O)[C@@H]2C[C@@H](Oc3ccncc3)CN2C1=O)OC1CCCC1 (stereo not given in full)

>  <measurement.target>
Colon cancer organoid

>  <units>
%

>  <quantitative.result>
91.3607

$$$$
>  <compound>
CC[C@H](CC(=O)O)n1c(=O)c2ncccc2n(Cc2cn(C)c3cc(C)cc(C)c23)c1=O

>  <measurement.target>
Colon cancer organoid

>  <units>
%

>  <quantitative.result>
103.918

$$$$
>  <compound>
CCNC(=O)c1cc2c(-c3cc(C(C)(C)O)ccc3Oc3c(C)cc(F)cc3C)cn(C)c(=O)c2[nH]1

>  <measurement.target>
Colon cancer organoid

>  <units>
%

>  <quantitative.result>
272.327

$$$$
>  <compound>
COc1c(C)cc(NC(=O)c2nn(Cc3ccc(F)cc3)c3c2CN(C(=O)c2ccc[nH]2)C[C@]3(C)C(N)=O)cc1C

>  <measurement.target>
Colon cancer organoid

>  <units>
%

>  <quantitative.result>
110.624

$$$$
>  <compound>
CC(=O)N1CCC(c2ccc(C(=O)NC(=N)N)cc2C(F)(F)F)CC1

>  <measurement.target>
Colon cancer organoid

>  <units>
%

>  <quantitative.result>
98.1409

$$$$

###

tested on: Colon cancer organoid; test: Optimized Dual-Glo assay to identify co-culture induced drug vulnerabilities using donated chemical probes and chemogenomics kinase set in O06 CRC organoid and F06 CAF mono and co-culture. […] Cell viability is reported both mono and co-culture models.; format: functional, Homo sapiens; parameters: dose or concentration left out as unconfirmed; conditions: Culture type Co-Culture; Transduced with Renilla-dsRed lentivirus
test.readout: Cell Viability (%)

>  <query.smiles>
Nc1ccc(C(=O)Nc2cccc(-c3nc(N4CCOCC4)c4oc5ncccc5c4n3)c2)cn1

>  <test.readout>
Cell Viability

>  <quantitative.result>
81.5262

$$$$
>  <query.smiles>
O=C(NCCCN1CCOC1=O)c1cnc(NCc2cc(Br)ccc2Br)nc1NC1CCCC1

>  <test.readout>
Cell Viability

>  <quantitative.result>
154.807

$$$$
>  <query.smiles>
CNc1nc(Nc2cnn([C@H]3CCN(C4COC4)C[C@@H]3F)c2Cl)ncc1C(F)(F)F

>  <test.readout>
Cell Viability

>  <quantitative.result>
87.0484

$$$$
>  <query.smiles>
CCS(=O)(=O)Nc1ccc(Oc2ccc(F)cc2F)c(-c2cn(C)c(=O)c3[nH]ccc23)c1

>  <test.readout>
Cell Viability

>  <quantitative.result>
272.686

$$$$

###

test system: Colon cancer organoid; experiment: Optimized Dual-Glo assay to identify co-culture induced drug vulnerabilities using donated chemical probes and chemogenomics kinase set in O14 CRC organoid and F14 CAF mono and co-culture. […] Cell viability is reported both mono and co-culture models.; format: functional, Homo sapiens; set-up: dose or concentration left out as unconfirmed; conditions: Culture type Mono-Culture; Transduced with Renilla-dsRed lentivirus
# maps each entry to its Cell Viability
test.readout: Cell Viability (%)

>  <compound>
CCOc1ccc(S(=O)(=O)Nc2ccc(Cl)cc2C#Cc2cnc(C(=O)[O-])cc2OC)c2ncccc12.[K+]

>  <measurement.target>
Colon cancer organoid

>  <quantitative.result>
95.2003

$$$$
>  <compound>
O=C(c1ccc(C(=O)N2CCC(N3CCCC3)CC2)c(Nc2ccccc2)c1)N1CCC(N2CCCC2)CC1

>  <measurement.target>
Colon cancer organoid

>  <quantitative.result>
98.5481

$$$$
>  <compound>
CN(C(=O)c1cnn2cccnc12)c1cc2c(cc1N1CCOCC1)C(=O)N(C[C@@H](F)C(C)(C)O)C2

>  <measurement.target>
Colon cancer organoid

>  <quantitative.result>
103.195

$$$$
>  <compound>
CCOC(=O)CCNc1cc(N2CCc3ccccc3CC2)nc(-c2cccnc2)n1

>  <measurement.target>
Colon cancer organoid

>  <quantitative.result>
94.8955

$$$$
>  <compound>
O=C(O)c1ccc2c(c1)nc(Nc1cccc(Cl)c1)c1ccncc12 [SILMITASERTIB]

>  <measurement.target>
Colon cancer organoid

>  <quantitative.result>
119.06

$$$$
>  <compound>
CC1(C)C(N)=Nc2cc(OCCCN3Cc4ccc(OCCc5cn(CC(=O)N6CCC(CCN7CCCC7)CC6)nn5)cc4C3)c(OCC3CC3)cc21

>  <measurement.target>
Colon cancer organoid

>  <quantitative.result>
119.85

$$$$
>  <compound>
C[C@@H]1CCNC(=O)c2cc3ccc(C(=O)Nc4nc5ccccc5n4CCCN(C)C)cc3n21

>  <measurement.target>
Colon cancer organoid

>  <quantitative.result>
86.0489

$$$$
>  <compound>
CC(C)(O)CNc1ncc(-c2ccnc(Nc3ccnc(Cl)c3)n2)c(CC2CC2)n1

>  <measurement.target>
Colon cancer organoid

>  <quantitative.result>
192.643

$$$$
>  <compound>
CNC(=O)c1cc(C(=O)N[C@H]2[C@@H]3COC[C@@H]32)cc2c1O[C@H](CF)[C@H]2c1ccccc1 [GSK973]

>  <measurement.target>
Colon cancer organoid

>  <quantitative.result>
155.71

$$$$
>  <compound>
Cc1ccc(-c2cnc([C@@]3(O)CC[C@H](C(=O)O)C(C)(C)C3)s2)cc1Nc1cccc(C(F)(F)F)n1 [MRL-SYKi-NC]

>  <measurement.target>
Colon cancer organoid

>  <quantitative.result>
77.2403

$$$$
>  <compound>
Cc1cnc(-c2cc(Cl)ccc2F)cc1-n1c(=O)n(CC(N)=O)c2cnccc21 [TP-008]

>  <measurement.target>
Colon cancer organoid

>  <quantitative.result>
98.4627

$$$$
>  <compound>
CN(C)C(=O)Cn1cc(-c2ccc(-c3cncc4ccccc34)cc2)cn1

>  <measurement.target>
Colon cancer organoid

>  <quantitative.result>
23.2323

$$$$
>  <compound>
O=C(O)c1ccc(-c2c[nH]c3ncc(-c4ccccc4)cc23)cc1C1CCCC1 [GSK-650394]

>  <measurement.target>
Colon cancer organoid

>  <quantitative.result>
103.115

$$$$
>  <compound>
CNCCN1CCC(c2cc(CN(C)C(=O)c3cccc(Oc4ccccc4)c3)ccn2)CC1

>  <measurement.target>
Colon cancer organoid

>  <quantitative.result>
118.528

$$$$
>  <compound>
Cc1sc2c(c1C)C(c1ccc(Cl)cc1)=N[C@H](CC(=O)OC(C)(C)C)c1nnc(C)n1-2

>  <measurement.target>
Colon cancer organoid

>  <quantitative.result>
107.072

$$$$

###

test system: Colon cancer organoid; test: Optimized Dual-Glo assay to identify co-culture induced drug vulnerabilities using donated chemical probes and chemogenomics kinase set in O06 CRC organoid and F06 CAF mono and co-culture. […] Cell viability is reported both mono and co-culture models.; format: functional, Homo sapiens; design: dose or concentration left out as unconfirmed; details: Culture type Co-Culture; Transduced with Renilla-dsRed lentivirus

>  <molecule>
O=C(O)c1ccc(-c2coc3ncc(-c4ccccc4)cc23)cc1Cl

>  <Cell Viability [%]>
119.386

$$$$
>  <molecule>
CC(C)(C)OC(=O)N1CCCC1CNC1CCC(c2cc(F)ccc2F)(S(=O)(=O)c2ccc(Cl)cc2)CC1 (centres undefined)

>  <Cell Viability [%]>
188.651

$$$$
>  <molecule>
COc1ccccc1S(=O)(=O)Nc1ccc2c(c1)CN(C)C(=O)N2

>  <Cell Viability [%]>
112.248

$$$$
>  <molecule>
COc1ncc(-c2ccc3nccc(-c4ccnnc4)c3c2)cc1NS(=O)(=O)c1ccc(F)cc1F

>  <Cell Viability [%]>
34.7423

$$$$
>  <molecule>
Cl.O=C([C@@H](Cc1cccc(C(F)(F)F)c1)NS(=O)(=O)c1cc(F)c2c(c1)CCNC2)N1CCCC1

>  <Cell Viability [%]>
115.078

$$$$
>  <molecule>
Cc1ccc(C(=O)Nc2cccc(C(F)(F)F)c2)cc1Nc1nc(-c2cccnc2)nc2c1cnn2C

>  <Cell Viability [%]>
70.9034

$$$$
>  <molecule>
Cc1cc(NC(=O)c2cccc(S(F)(F)(F)(F)F)c2)cc(-n2ccn3nc(-c4cccnc4)cc23)c1

>  <Cell Viability [%]>
147.367

$$$$
>  <molecule>
Cc1c(NC(=O)c2ccc(C(C)(C)C)cc2)cccc1-c1cn(C)c(=O)c(Nc2ccc(C(=O)N3CCOCC3)cc2)n1

>  <Cell Viability [%]>
113.435

$$$$
>  <molecule>
Cc1c(N2CCCC2)nc2ccc(Br)cc2c1C(=O)NC[C@H](CCC(=O)O)c1ccccc1Cl

>  <Cell Viability [%]>
142.298

$$$$
>  <molecule>
CN1CCN(Cc2ccc(Nc3ncc(Cl)c(Nc4ccccc4S(=O)(=O)N(C)C)n3)cc2)CC1

>  <Cell Viability [%]>
0.7151

$$$$
>  <molecule>
CC1(C)C(N)=Nc2cc(OCCCCN3Cc4ccc(OCc5cn(CC(=O)N6CCC(CCN7CCCC7)CC6)nn5)cc4C3)c(OCC3CC3)cc21

>  <Cell Viability [%]>
114.368

$$$$
>  <molecule>
COCC(=O)NC/C=C/c1ccc2ncnc(Nc3ccc(Oc4ccc(C)nc4)c(C)c3)c2c1

>  <Cell Viability [%]>
58.1065

$$$$
>  <molecule>
CCc1cc2cc(NS(=O)(=O)c3ccc(C#N)cc3)ccc2n(CC)c1=O

>  <Cell Viability [%]>
102.933

$$$$
>  <molecule>
Cl.Cl.c1ccc([C@@H]2C[C@H]2NC2CCNCC2)cc1

>  <Cell Viability [%]>
97.0217

$$$$
>  <molecule>
CC(=O)Nc1cccc(-n2c(=O)n(C3CC3)c(=O)c3c(Nc4ccc(I)cc4F)n(C)c(=O)c(C)c32)c1

>  <Cell Viability [%]>
57.2708

$$$$
>  <molecule>
CC(C)[C@H](C(=O)Nc1ccc(C(=O)NO)cc1)c1ccccc1

>  <Cell Viability [%]>
640.047

$$$$
>  <molecule>
O=C(Nc1cccnc1)c1cc(-c2ccnc(F)c2)ccc1OCc1ccccc1

>  <Cell Viability [%]>
83.1264

$$$$
>  <molecule>
Cc1sc2c(c1C)C(c1ccc(Cl)cc1)=N[C@@H](CC(=O)OC(C)(C)C)c1nnc(C)n1-2

>  <Cell Viability [%]>
301.325

$$$$
>  <molecule>
CN1CCN(C(=O)C(C)(C)c2ccc(C(=O)Nc3cn4cc(-c5cc(C(C)(C)C)cc(C(C)(C)C)c5)ccc4n3)cc2)CC1

>  <Cell Viability [%]>
85.6501

$$$$
>  <molecule>
CCc1cc(Nc2nccc(-c3c(-c4ccc(OC)c(C(=O)Nc5c(F)cccc5F)c4)nc4ccccn34)n2)c(OC)cc1N1CCC(N2CCN(S(C)(=O)=O)CC2)CC1

>  <Cell Viability [%]>
78.7013

$$$$
>  <molecule>
CCOc1ccc(S(=O)(=O)Nc2ccc(Cl)cc2C#Cc2cnc(C(=O)[O-])cc2OC)c2ncccc12.[K+]

>  <Cell Viability [%]>
113.31

$$$$
>  <molecule>
CCN(C(=O)CO)[C@H]1CN(/C(=N\C#N)Nc2cccc(OC(F)F)c2)N=C1c1ccc(Cl)c(Cl)c1

>  <Cell Viability [%]>
102.729

$$$$
>  <molecule>
CN(C)C(=O)Cn1cc(-c2ccc(-c3cncc4ccccc34)cc2)cn1

>  <Cell Viability [%]>
47.4852

$$$$
>  <molecule>
CC1=C(C#N)C(c2ccc3[nH]nc(C)c3c2)C(C#N)=C(C)N1

>  <Cell Viability [%]>
192.268

$$$$

Values from ChEMBL document CHEMBL5674860
